# credit: PubChem BioAssay

assay: inhibitors of TNFa-induced NFkB p65 translocation, primary screen, imaging, HUVEC, MLSMR starter and 10KST1 sets (AID 438); settings: HUVEC TNFa-induced p65 nuclear translocation; measured here: nuclei count (cytotoxicity indicator), at 2.08 µM;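 further: compound added about 3h40 before a 20 min TNFalpha stimulation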
QUANTITY KIND: cell count
# print the numeric value only

// below: answered compounds
CCCCCCNS(=O)(=O)c1ccc(Cl)s1 | 579
CCOC(=O)Cc1nn2c(=O)cc(C)nc2s1 | 728
Cc1noc(C)c1S(=O)(=O)N1CCC(C(=O)Nc2ccccn2)CC1 | 281
Cc1cc(C)nc(N2CCCC(C(=O)Nc3ccc4c(c3)OCO4)C2)n1 (stereo unspecified) | 563
CC(=O)CC(=O)Nc1ccccc1NC(C)=O | 470

So what does the record say about cell count for CCOC(=O)c1[nH]c2ccc(F)cc2c1NC(=O)C(C)N1CCc2cc(OC)c(OC)cc2C1 (stereo unspecified) ?
436

Requested field: cell count. Item: O=C(Nc1ncnc2sc3c(c12)CCCCC3)c1ccco1
260

----------
test: blockers of RIG-like receptor reporter activation – cell-based, Sendai virus stimulus, luciferase, 10K MLSCN set, TLR/RLR signaling modifier project, primary screen (AID 602276); conditions: HEK293 RL24 IRF3 luciferase reporter, at 10 µM, stronger effect = higher value;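 further: firefly luciferase from ISG56 promoter only with Renilla not read in this screen; 0% = Sendai virus plus DMSO and 100% = medium plus DMSO without virus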
Lab note: anything with inhibition at or over 10% counts as criterion met; the rest go in criterion not met.

Confirm if inhibition reported for the molecule CC(C)CC(c1nnnn1C1CCCC1)N1CCN(c2ccccc2F)CC1 (stereo unspecified) is 10% or above.
criterion met

Identify whether the reported inhibition of the following molecule is 10% or greater: CC(=O)O[C@]1(C(C)=O)CC[C@H]2[C@@H]3C=C(Cl)C4=CC(=O)CC[C@]4(C)[C@H]3CC[C@@]21C
criterion not met

Textbook exercise: given the entry O=C(NCCC1=CCCCC1)C1CCN(S(=O)(=O)c2cccc3cccnc23)CC1 , state whether its inhibition is greater than or equal to 10%.
criterion not met

Test whether the molecule CCCN(CCC)CCNC(=O)C(NS(=O)(=O)c1ccc2c(c1)CCC(=O)N2)c1ccccc1 (stereo unspecified) records inhibition of 10% or higher.
criterion not met

Check this molecule for inhibition at or above 10%: CCOC(=O)CNC(=O)Cn1cnc2c(nnn2-c2cccc(Cl)c2)c1=O
criterion not met

----------
assay: inhibitors of TNFa-induced NFkB p65 translocation, primary screen, imaging, HUVEC, MLSMR starter and 10KST1 sets (AID 438); settings: HUVEC TNFa-induced p65 nuclear translocation; measured here: nuclei count (cytotoxicity indicator), at 2.08 µM;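 further: compound added about 3h40 before a 20 min TNFalpha stimulation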
Decision: cell count >= 500 yields met, all other cases yield not met.

Previously resolved entries follow.
CCc1nnc(NC(=O)c2ccc(-c3cccc(C(F)(F)F)c3)o2)s1 | met
Cc1cccc(NC(=O)CCn2ccnc2C)c1 | met
COC(=O)CN(c1ccc2c(c1)OCO2)S(C)(=O)=O | not met
Cc1cc(C)n2nc3nc(N4CCCCC4)nc(-c4ccco4)c3c2n1 | not met

API: the following record is the query input.
Say whether CN(C(=O)c1ccccn1)c1nnc(-c2ccncc2)s1 shows cell count of 500 or more.
met

----------
// reported inhibition for each item listed
assay: blockers of RIG-like receptor reporter activation – cell-based, Sendai virus stimulus, luciferase, 10K MLSCN set, TLR/RLR signaling modifier project, primary screen (AID 602276); conditions: HEK293 RL24 IRF3 luciferase reporter, at 10 µM, stronger effect = higher value;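 further: firefly luciferase from ISG56 promoter only with Renilla not read in this screen; 0% = Sendai virus plus DMSO and 100% = medium plus DMSO without virus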
// note: answer is a bare numeric in %

COCCn1c(=O)[nH]c2cc(C(=O)NCCCN3CCN(c4ccc(F)cc4)CC3)ccc2c1=O | 16.2

# evaluate next
Value lookup for inhibition; key = CC1(C)S[C@@H]2[C@H](NC(=O)Cc3ccccc3)C(=O)N2[C@H]1C(=O)O
20.3
